Target: T1, recombinant human IP-10 (R&D Systems) (human, UniProt P02778 22-98)
T1 sequence: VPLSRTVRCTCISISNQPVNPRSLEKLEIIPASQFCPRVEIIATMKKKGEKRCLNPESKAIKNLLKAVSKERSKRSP
Assay: cell-based or functional assay
Parameter: IC50 of inhibition of chemotaxis, donor 215. Scope: all listed entries.
The reply should contain only the number, in µg/mL.

Consider the reported IC50 of inhibition of chemotaxis, donor 215 for these binders:
murine monoclonal antibody AIP12 (antibody, V domains shown, Mouse hybridoma antibody; Mouse IgG1/kappa is used as its isotype control; also called MuAIP12; MUAIP12) VH: QIQLVQSGPELKKPGETVKISCKASGYTFTDYSMHWVKQAPGKGLKWMGWINTETGEPTYADDFKGRFAFSLETSASTAYLQINNLKNEDTATYFCARNYDYDGYFDVWGAGTTVTVSS VL: DIQMTQSPSSLSASLGGKVTITCKASQDINKYIAWYQHKPGKGPRLLIHYTSTLQPGIPSRFSGSGSGRDYSFSISNLEPEDIATYYCLQYDNLLFTFGSGTKLEIK = 0.13
humanized monoclonal antibody HuAIP12 (antibody, IgG1, V domains shown) VH: EVQLVQSGAEVKKPGATVKISCKVSGYTFTDYSMHWVRQAPGKGLKWMGWINTETGEPTYADDFKGRFTFTLDTSTSTAYMELSSLRSEDTAVYYCARNYDYDGYFDVWGQGTTVTVSS VL: DIQMTQSPSSLSASVGDRVTITCKASQDINKYIAWYQQKPGKAPKLLIHYTSTLQPGIPSRFSGSGSGRDYTFTISSLQPEDIATYYCLQYDNLLFTFGQGTKLEIK = 0.142
humanized monoclonal antibody HuAIP13 (antibody, IgG1, V domains shown) VH: EVQLVQSGAEVKKPGATVKISCKVSGYTFTDYSMHWVRQAPGKGLKWMGWINTEIGEPTYADDFKGRFTFTLDTSTSTAYMELSSLRSEDTAVYYCARNYDYDAYFDVWGQGTTVTVSS VL: DIQMTQSPSSLSASVGDRVTITCKADQDINKYIAWYQQKPGKAPKLLLHHTSTLQPGIPSRFSGSGSGRDYTFTISSLQPEDIATYYCLQYDSLLFTFGQGTKLEIK = 0.139

Below: the item to evaluate.
[Q] So what's the measured IC50 of inhibition of chemotaxis, donor 215 for this one? murine monoclonal antibody AIP13 (antibody, V domains shown, Mouse hybridoma antibody; Mouse IgG1/kappa is used as its isotype control; also called MuAIP13) VH: QIQLVQSGPELKKPGETVKISCKASGYTFTDYSMHWVKQAPGKGLKWMGWINTEIGEPTYADDFKGRFAFSLETSASTAYLQINNLKNEDTATYFCARNYDYDAYFDVWGAGTTVTVSS VL: DIQMTQSPSSLSASLGGKVTITCKADQDINKYIAWYQHKPGRGPRLLLHHTSTLQPGIPSRFSGSGSGRDYSFSISNLEPADIATYYCLQYDSLLFTFGSGTKLEIK
[A] 0.26
